tested on: ATP; assay: switch fluorescence ratio, 500 uM ATP over buffer (Cy3 cluster intensity, sum of 5 cycles each) (fold (ratio)); higher = stronger signal-on switching upon ATP binding; sequences stand for … in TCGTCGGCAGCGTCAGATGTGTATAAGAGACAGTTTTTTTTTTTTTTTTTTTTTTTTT…TC; settings: aptamer strand: ATP DNA aptamer (quencher-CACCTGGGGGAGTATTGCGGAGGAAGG + anchor), 100 nM annealed; ATP concentration: 500 uM;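 note: ATP exposure 15 min at 22 °C before imaging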
Please use 1.0 whenever switch fluorescence ratio is not below 1, and 0.0 whenever it is.

• TGGCGGTTGC = 0.0
• TTTACGAAAG = 1.0

----------
Parameter switch fluorescence ratio: see the listing below.
system: ATP; assay: switch fluorescence ratio, 500 uM ATP over buffer (Cy3 cluster intensity, sum of 5 cycles each) (fold (ratio)); higher = stronger signal-on switching upon ATP binding; sequences stand for … in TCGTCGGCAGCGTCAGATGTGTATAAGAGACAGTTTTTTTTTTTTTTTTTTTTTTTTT…TC; settings: aptamer strand: ATP DNA aptamer (quencher-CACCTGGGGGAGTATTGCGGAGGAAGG + anchor), 100 nM annealed; ATP concentration: 500 uM;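 note: ATP exposure 15 min at 22 °C before imaging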
property-measured: switch fluorescence ratio

* GGTTTCTGCT | 1.02
* ATTTATGTTA | 0.985
* TTGGTGGGTT | 0.994
* ATCGTACGGC | 1.01
* AATTAGGGCT | 0.971
* TTTTTAGGTA | 0.992
* AAGGCGGGGA | 1.02
* GGTGTCGGGT | 0.99
* CGCAAAAAGT | 1.02
* AAAAAATGGG | 1.01
* AAGAAATAAA | 0.974
* TACCAGGGGT | 0.991
* TTTGAATGGG | 0.985
* AGGGAGTTTG | 0.983
* GGCAACGCGC | 0.997
* TGGGGCACCC | 0.985
* TTCTCGGGGA | 0.991
* GCGATTCGGG | 0.978
* ATAAGTCCGA | 0.99
* TCGGTTCATT | 0.996
* AACATGCGCA | 0.971
* CGGGGGGAGC | 1.01
* GCTGCGGGG | 1.01
* GAGGTATGTG | 0.997
* CTTGAATCGT | 0.987
* AGAGGCTTAA | 1.01
* TTTCGTGCTT | 1.02
* TGTTGGCAGG | 1.02
* AGGGTTAGGA | 1.02
* GATTGGGGAT | 0.992
* TGATAAAGGT | 0.997
* GGGCAAGGAG | 1.01

----------
Parameter switch fluorescence ratio: see the listing below.
system: ATP; assay: switch fluorescence ratio, 500 uM ATP over buffer (Cy3 cluster intensity, sum of 5 cycles each) (fold (ratio)); higher = stronger signal-on switching upon ATP binding; sequences stand for … in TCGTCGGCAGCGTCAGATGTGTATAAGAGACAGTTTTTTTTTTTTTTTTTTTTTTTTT…TC; conditions: aptamer strand: ATP DNA aptamer (quencher-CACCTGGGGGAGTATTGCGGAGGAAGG + anchor), 100 nM annealed; ATP concentration: 500 uM;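 note: ATP exposure 15 min at 22 °C before imaging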
property-measured: switch fluorescence ratio

• AGGAATTGCT = 1.03
• AACGGGATAT = 1.09
• GGCATGCCAT = 0.991
• AGTAAGGCTC = 1.14
• GATTTTGAGC = 0.999
• CCAAGCTTGT = 1
• TTGGGCCGCT = 0.974
• CCGATGGGGA = 1.16

----------
tested on: ATP; test: switch fluorescence ratio, 500 uM ATP over buffer (Cy3 cluster intensity, sum of 5 cycles each) (fold (ratio)); higher = stronger signal-on switching upon ATP binding; sequences stand for … in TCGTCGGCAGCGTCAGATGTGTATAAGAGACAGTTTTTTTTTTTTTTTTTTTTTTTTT…TC; conditions: aptamer strand: ATP DNA aptamer (quencher-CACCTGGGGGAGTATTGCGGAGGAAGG + anchor), 100 nM annealed; ATP concentration: 500 uM;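 note: ATP exposure 15 min at 22 °C before imaging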
Parameter switch fluorescence ratio: see the listing below.
property-measured: switch fluorescence ratio

- AGGGCCGGTA: 1.03
- GCTTTTTGC: 0.951
- CAATGAGGTG: 1.08
- TTTCAAGAGT: 1.03
- ACGGTGTGGC: 1.03
- GGCCGGGGAG: 0.981
- AGATTAGGCA: 0.992
- TTCGTGTGGT: 1
- AAGTTGGATA: 0.993
- ACTCAGGTGT: 3.23
- TAGCCTAATG: 1
- TGGTTTTAGC: 0.989
- AGGTATTTTT: 1.01
- TTTATCGTTG: 0.998
- ATGTCCTTAT: 0.988
- GCTTGATGAA: 1.03
- TAGGCTCTTT: 0.978
- GATTGGGTTG: 0.981
- CTTGGAATGT: 1.01
- GCGATTTTTT: 0.974
- CGTAGGATTT: 0.955
- TGTTGGGGCT: 0.999
- AGTGGGATAA: 1.11
- GCTGGAGGGG: 0.985
- ACGGTTTCTG: 1.04
- CGCTGACCTT: 1.2
- GATAGAGAGG: 1
- ACGATTGGTT: 1.01
- AGGTTGTGTC: 0.979
- TTAAGTTATT: 1.03
- ACGAAAGGGA: 1.11
- AGCTTTGTTT: 1.01
- AAGGGTGCTA: 0.979
- CCGGGTGTTT: 1.63

----------
test system: ATP; assay: switch fluorescence ratio, 500 uM ATP over buffer (Cy3 cluster intensity, sum of 5 cycles each) (fold (ratio)); higher = stronger signal-on switching upon ATP binding; sequences stand for … in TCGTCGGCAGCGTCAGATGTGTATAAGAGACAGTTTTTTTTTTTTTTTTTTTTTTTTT…TC; conditions: aptamer strand: ATP DNA aptamer (quencher-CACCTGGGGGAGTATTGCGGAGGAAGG + anchor), 100 nM annealed; ATP concentration: 500 uM;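 note: ATP exposure 15 min at 22 °C before imaging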
Parameter switch fluorescence ratio: see the listing below.
property-measured: switch fluorescence ratio

• CCAGCCTAGT = 0.984
• AGGATATGGC = 1.09
• ATGCGTGGGG = 1.02
• TTTTGGAAGA = 0.983
• TAGTAAATGG = 0.999
• AGACCGAGTT = 1.08
• ACTTTGGACA = 1.04
• AGGTGATACG = 1.06
• TAGTCGAGAT = 0.989
• TATTAAGTTT = 1.02
• ACATTGTGTA = 0.996
• GGTTCCCACT = 0.992
• GAGAAAGGTT = 1.09
• ATTGAGAGCA = 0.985
• ATTTAATTCG = 1.01
• AAGGGATGCG = 1.09
• TATTAGCAGC = 1.03
• GAAATTGCAT = 0.996
• CGGGTTGAG = 0.997
• AGTAACATAT = 0.993
• CGGGGGGTCA = 1.01
• GCTACACGGC = 1.02
• GAGTGTACGT = 1.01
• TCCTGATGTT = 0.982
• AAGGCACCTG = 1.03
• AAGTACTTGG = 1.17
• GCCAAGTTCG = 0.979
• AAGGGGATGG = 0.968
• TTTATTGATG = 0.997
• TTGTGTTGTA = 1
• TTTTATGCTT = 0.97
• GCTTAGTTGT = 1.01
• GAGTCTAAGT = 0.996
• GTTTAGAGGT = 0.993
• ACGACCGACA = 1.95
• CTGAAGGAGG = 0.971
• TCGGGATGTT = 0.989
• CGAGATTGGT = 0.973
• TCTAGGAAAG = 0.991

----------
system: ATP; test: switch fluorescence ratio, 500 uM ATP over buffer (Cy3 cluster intensity, sum of 5 cycles each) (fold (ratio)); higher = stronger signal-on switching upon ATP binding; sequences stand for … in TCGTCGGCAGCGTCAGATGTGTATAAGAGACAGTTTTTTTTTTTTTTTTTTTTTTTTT…TC; settings: aptamer strand: ATP DNA aptamer (quencher-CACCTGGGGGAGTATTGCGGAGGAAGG + anchor), 100 nM annealed; ATP concentration: 500 uM;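 note: ATP exposure 15 min at 22 °C before imaging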
property-measured: switch fluorescence ratio

- AGAGTGACGT: 0.985
- GCATAACATT: 1.01
- TTGTTGGGGC: 1.02
- TAAAGTATTT: 1.04
- GAAATTACAG: 0.994
- AGTATTTGGT: 1
- GTTATTGGGA: 0.99
- CCTGTTCGCT: 1.21
- TATTGGTGTT: 0.99
- AAGAGGGACT: 1.03
- TTATTCAGTC: 0.98
- GTTTCGTTGT: 0.98
- GTTGGAGAGG: 0.974
- GGGCAAAAAA: 1.03
- TTTTGTAATG: 0.991
- CGGAGAGTAG: 1.03
- ATGGGGATGT: 1.03
- ACGGGGGATT: 1.03
- TAGATTTTTG: 0.982
- TACTCCGGTT: 2.02
- AGGGTAGTCC: 0.986
- TTTTATTAAA: 1
- TGAGTCTGCT: 0.998
- TTTTACGGTG: 0.978
- TGAGTGCCGG: 1.18
- TTTTGGGTTC: 1.03
- ACGGACGTTC: 1.15
- TGGGGGCTTT: 0.99
- TTTATGGAGG: 0.991
- CTTAAATGAA: 1.02
- GGAGAAATCT: 1.12
- TTGGGTAAAT: 0.985
- AGTAGATTGG: 0.995
- GGGATCCTCC: 1.03
- CGTGTGGGTT: 0.993
- CTATAAACGG: 1.03
